Values compiled from patent US20240124465A1.

MEASURED_ON: JAK1 (Homo sapiens)
Construct: endogenous in cells; host or cells: MHH-CALL-4
Sequence (P23458 whole entry): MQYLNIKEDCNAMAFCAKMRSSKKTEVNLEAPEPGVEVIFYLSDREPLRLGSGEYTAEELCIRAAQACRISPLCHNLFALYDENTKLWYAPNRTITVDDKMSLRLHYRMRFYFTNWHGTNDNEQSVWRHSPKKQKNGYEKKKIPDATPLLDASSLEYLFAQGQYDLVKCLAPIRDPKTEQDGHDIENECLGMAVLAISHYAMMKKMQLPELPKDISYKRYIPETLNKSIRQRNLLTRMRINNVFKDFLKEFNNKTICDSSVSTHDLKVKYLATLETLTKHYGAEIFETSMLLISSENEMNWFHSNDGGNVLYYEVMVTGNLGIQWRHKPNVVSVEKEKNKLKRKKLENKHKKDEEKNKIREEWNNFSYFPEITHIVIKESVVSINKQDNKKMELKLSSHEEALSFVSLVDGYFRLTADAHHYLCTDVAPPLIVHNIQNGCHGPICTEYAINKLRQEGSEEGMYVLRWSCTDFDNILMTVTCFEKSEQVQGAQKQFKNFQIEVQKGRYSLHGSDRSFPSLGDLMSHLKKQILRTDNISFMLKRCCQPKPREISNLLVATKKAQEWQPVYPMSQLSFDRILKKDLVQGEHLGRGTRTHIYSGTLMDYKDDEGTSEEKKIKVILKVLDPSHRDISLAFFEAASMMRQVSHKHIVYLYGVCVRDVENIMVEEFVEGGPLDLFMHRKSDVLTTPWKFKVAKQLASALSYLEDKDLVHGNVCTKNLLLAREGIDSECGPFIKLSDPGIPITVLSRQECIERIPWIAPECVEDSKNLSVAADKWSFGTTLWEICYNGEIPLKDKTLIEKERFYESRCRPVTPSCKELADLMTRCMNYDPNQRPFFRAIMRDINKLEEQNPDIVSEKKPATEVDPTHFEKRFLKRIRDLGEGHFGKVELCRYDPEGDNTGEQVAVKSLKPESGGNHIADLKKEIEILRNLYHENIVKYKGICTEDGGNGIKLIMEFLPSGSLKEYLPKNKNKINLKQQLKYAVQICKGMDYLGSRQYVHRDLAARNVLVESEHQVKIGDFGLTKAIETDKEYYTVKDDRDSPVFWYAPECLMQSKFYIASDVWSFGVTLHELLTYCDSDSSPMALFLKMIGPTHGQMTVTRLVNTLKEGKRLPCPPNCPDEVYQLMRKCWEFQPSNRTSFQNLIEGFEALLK
ASSAY_DETAILS: Western blot assay, JAK1 protein degradation
Assay type: cell-based
RUN_PARAMETERS: MHH-CALL-4 cells, vehicle control = 100%
PROPERTY: Target Protein Degradation (% remaining at 100 nM, 24 h) JAK1 (% remaining)

Recorded results for 5 compounds are shown here.
COMPOUND	RESULT_UNITS	QUANTITATIVE_RESULT
CCS(=O)(=O)N1CC(CC#N)(n2cc(-c3nc(Nc4ccc(C(=O)NCCCCCCNc5ccc(C6CCC(=O)NC6=O)cc5)cc4)nc4[nH]ccc34)cn2)C1 (centres unmarked)	% remaining	128
CCCn1cc(-c2nc(Nc3ccc(C(=O)NCCN4CCN(c5ccc6c(c5)C(=O)N(C5CCC(=O)NC5=O)C6=O)CC4)cc3)nc3[nH]ccc23)cn1 (centres unmarked)	% remaining	126
CCS(=O)(=O)N1CC(CC#N)(n2cc(-c3nc(Nc4ccc(C(=O)N5CCC6(CC5)CCN(c5ccc(C7CCC(=O)NC7=O)cc5)CC6)cc4)nc4[nH]ccc34)cn2)C1 (centres unmarked)	% remaining	85
N#CC[C@@H](C1CCCC1)n1cc(-c2nc(Nc3ccc(C(=O)NCCCN4CCN(c5ccc6c(c5)C(=O)N(C5CCC(=O)NC5=O)C6=O)CC4)cc3)nc3[nH]ccc23)cn1 (some centres unmarked)	% remaining	145
CCCn1cc(-c2nc(Nc3ccc(C(=O)NCCCCOc4ccc(C5CCC(=O)NC5=O)cc4)cc3)nc3[nH]ccc23)cn1 (centres unmarked)	% remaining	123

a. CCS(=O)(=O)N1CC(CC#N)(n2cc(-c3nc(Nc4ccc(C(=O)NCCCCCCCNc5cccc(C6CCC(=O)NC6=O)c5)cc4)nc4[nH]ccc34)cn2)C1 (centres unmarked)
b. CCS(=O)(=O)N1CC(CC#N)(n2cc(-c3nc(Nc4ccc(C(=O)NCCCCN5CCN(c6ccc7c(c6)C(=O)N(C6CCC(=O)NC6=O)C7=O)CC5)cc4)nc4[nH]ccc34)cn2)C1 (centres unmarked)
c. CCS(=O)(=O)N1CC(CC#N)(n2cc(-c3nc(Nc4ccc(C(=O)NCCCCCNc5cccc(C6CCC(=O)NC6=O)c5)cc4)nc4[nH]ccc34)cn2)C1 (centres unmarked)
**Query** Order by Target Protein Degradation (% remaining at 100 nM, 24 h) JAK1, ascending. Please respond with the labels ordered as the question requires.
**Result** c, a, b
(c: 44 % remaining, a: 90 % remaining, b: 138 % remaining)
